System: MDA-N
experimentSummary: NCI tumour cell line growth inhibition, 48 h
recordedMetric: TGI

compound: C=CCN1CCC(OC(=O)C(O)(C#CC)C2CCCC2)CC1 (stereo not given)
TGI: > 100 µM

[ask] Name the reported TGI value associated with the compound N#Cc1c(N2CCCC2)nsc1NCc1ccccc1
[reply] > 100 µM

[ask] Name the reported TGI value associated with the compound COc1ccccc1/C=C/C1=NN(c2cccc(S(=O)(=O)O)c2)C2(C1)SCC(=O)N2c1nc2ccccc2s1 (stereo not given)
[reply] > 100 µM

[ask] Name the reported TGI value associated with the compound CCCCCC(C)(C)CCC(=O)OC1OC(COC2OC(COC3OC(CO)C(O)C(O)C3O)C(O)C(O)C2O)C(O)C(O)C1O (stereo not given)
[reply] > 100 µM

[ask] Name the reported TGI value associated with the compound NNC(=O)CSc1nc2ccc(I)cc2c(=O)n1Cc1ccccc1
[reply] > 100 µM

[ask] Name the reported TGI value associated with the compound CCOC(=O)c1cnn2c1ncc1c(=O)n(NC(N)=O)ccc12
[reply] > 100 µM

[ask] Name the reported TGI value associated with the compound COc1cc2c(/C=C3/C(=O)N(C)c4ccccc43)c(Cl)[nH]c2cc1C
[reply] 0.153 µM

[ask] Name the reported TGI value associated with the compound CCOc1ccc2nc(-c3ccc(O)cc3)sc2c1
[reply] > 100 µM

[ask] Name the reported TGI value associated with the compound O=[N+]([O-])c1ccc(S(=O)(=O)Cc2ccccc2)c([N+](=O)[O-])c1
[reply] 4.09 µM

[ask] Name the reported TGI value associated with the compound COc1cccc(C2c3cc4c(cc3OC(C)(N3CCCC3)C2C)OCO4)c1OC (stereo not given)
[reply] 34.7 µM

All values here come from PubChem BioAssay (NCI).
